Reported IC50 values follow for various molecules
# targetOrTestSystem: Recombinant human HSD17B13 enzyme (Homo sapiens, UniProt Q7Z5P4)
# assaySummary: HSD17b13 NAD(P)H-Glo biochemical assay
# statedConditions: 50 uM estradiol, 1 mM NAD+, NAD(P)H-Glo luminescence; read-out: HSD17β13 IC50

Known results for molecules:
* Cn1nc(-c2ccc(Cl)c(O)c2F)c2cnc(N3CCN(S(C)(=O)=O)C4(CC4)C3)nc21 | 100 to 1000 nM
* CC(=O)N(C)C1CCN(c2ncc3c(-c4cc(C(F)(F)F)c(F)c(O)c4F)nn(C)c3n2)CC1 | < 100 nM
* Cn1nc(-c2cc(C(F)(F)F)c(F)c(O)c2F)c2cnc(N3CCOC(CO)C3)cc21 (stereo not shown) | 100 to 1000 nM
* COCCn1nc(-c2cc(C(F)(F)F)c(F)c(O)c2F)c2ccc(N3CCOCC34CC4)nc21 | < 100 nM
* CN(c1cc2c(cn1)c(-c1cc(C(F)(F)F)c(F)c(O)c1F)nn2C)C1CCOC1 (stereo not shown) | 100 to 1000 nM

The reported IC50 value, Recombinant human HSD17B13 enzyme (Homo sapiens, UniProt Q7Z5P4), for Cn1nc(-c2cc(C(F)(F)F)c(F)c(O)c2F)c2cnc(N(Cc3ccccc3)C3CCC3)nc21 reads < 100 nM

Readout IC50 for Cn1nc(-c2cc(C(F)(F)F)c(F)c(O)c2F)c2cnc(N3CCOCC3C3CCCCC3)nc21 (stereo not shown) , test system Recombinant human HSD17B13 enzyme (Homo sapiens, UniProt Q7Z5P4), was < 100 nM

----------
# targetOrTestSystem: Recombinant human HSD17B13 enzyme (Homo sapiens)
# Sequence (Q7Z5P4 20-300): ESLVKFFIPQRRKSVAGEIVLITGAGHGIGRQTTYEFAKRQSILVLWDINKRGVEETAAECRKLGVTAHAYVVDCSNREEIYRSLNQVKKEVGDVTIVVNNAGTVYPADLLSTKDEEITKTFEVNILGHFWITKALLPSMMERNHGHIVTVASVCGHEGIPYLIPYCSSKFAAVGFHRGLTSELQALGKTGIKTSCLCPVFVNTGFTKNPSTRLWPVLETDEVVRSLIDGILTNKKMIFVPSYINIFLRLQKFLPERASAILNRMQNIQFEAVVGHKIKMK
# assaySummary: HSD17b13 NAD(P)H-Glo biochemical assay
# statedConditions: 50 uM estradiol, 1 mM NAD+, NAD(P)H-Glo luminescence; read-out: HSD17β13 IC50
# Procedure: Example B-1: HSD17b13 NAD(P)H-Glo Biochemical Assay Recombinant human HSD17B13 enzyme. Substrate: estradiol (Sigma β-Estradiol E8875), 100 mM in DMSO. Cofactor: NAD+ Grade I free acid (Sigma 10127965001), 20 mM in H2O. […] Enzymatic activity detected by NAD(P)H-Glo™ Detection System (Promega G9062). […] HSD17b13 enzyme was diluted in 1× assay buffer to the desired enzyme concentration based on the specific activity of the enzyme lot. […] After incubating for 1 hour at RT, luminescence was measured.
pIC50: −log10 of the molar value.
quantityKind: pIC50

In plain terms, Cn1nc(-c2cc(C(F)(F)F)c(F)c(O)c2F)c2cnc(N3CCC4(CC3)CNC4=O)nc21 has a documented pIC50 of > 7.00

Please fill in: pIC50 reported for O=C(NC1(CCO)CCC1)c1ccc2oc(-c3cc(C(F)(F)F)c(F)c(O)c3F)nc2c1 = 6.00 to 7.00

// recorded pIC50 for CC(C)OC1CCN(c2ncc3c(-c4cc(C(F)(F)F)c(F)c(O)c4F)nn(C)c3n2)CC1 : > 7.00

Entry Cn1nc(-c2cc(C(F)(F)F)cc(O)c2F)c2cnc(N3CCN(S(C)(=O)=O)CC3)cc21 ; pIC50 = > 7.00

The recorded pIC50 for Cn1nc(-c2cc(C(F)(F)F)c(F)c(O)c2F)c2cnc(N3CCNC4(CC4)C3=O)cc21 is 6.00 to 7.00

Record Cn1nc(-c2cc(C(F)(F)F)c(F)c(O)c2F)c2cnc(N3CCCC(c4cncnc4)C3)nc21 (stereo not shown) . Reported pIC50: > 7.00

Form field pIC50, entry Cn1nc(-c2ccc(Cl)c(O)c2Cl)c2cnc(N3CCN(S(C)(=O)=O)C4(CC4)C3)nc21 : 4.52 to 6.00

Numbers sourced from patent US20240083861A1.
